Test system: COLO 205
Settings: human, 48 h
Reported property: CC50
I'd appreciate it if you wrote the number followed by its unit.

Give the reported value of CC50 for this record: O=C(O)CCCCCN1C(=O)/C(=C/C=C/c2ccc([N+](=O)[O-])o2)SC1=S [14b]
5.61 µM

---

Test system: HT29
Experiment: cells
Conditions: Homo sapiens, HT-29, 48 h, read-out: LC50, HT29, 48 h
Threshold check on CC50: strictly below 7 µM is t; on or above 7 µM is f.

[
  {
    "Molecule": "CC(C)C(C(=O)O)N1C(=O)/C(=C/C=C/c2ccc([N+](=O)[O-])o2)SC1=S (centres unmarked)",
    "Class name": "t"
  },
  {
    "Molecule": "O=C(O)C(c1ccccc1)N1C(=O)/C(=C/C=C/c2ccc([N+](=O)[O-])o2)SC1=S (centres unmarked)",
    "Class name": "f"
  },
  {
    "Molecule": "O=C(O)CCCN1C(=O)/C(=C/C=C/c2ccc([N+](=O)[O-])o2)SC1=S [13b]",
    "Class name": "t"
  }
]

Item CCCC(C(=O)O)N1C(=O)/C(=C/C=C/c2ccc([N+](=O)[O-])o2)SC1=S (centres unmarked) : CC50 beneath 7 µM, strictly?
f

---

System: SNB-75
Settings: human, 48 h
Reported property: CC50
Don't forget the unit after the value.

[
  {
    "Compound": "O=C(O)CCCCCN1C(=O)/C(=C/C=C/c2ccc([N+](=O)[O-])o2)SC1=S [14b]",
    "Value measured": "4.03 µM"
  }
]

Shifting focus to the compound that follows.
For the compound O=C(O)CCCN1C(=O)/C(=C/C=C/c2ccc([N+](=O)[O-])o2)SC1=S [13b] , give its measured CC50 value.
5.49 µM

---

Tested on: DU-145
Details: human, 48 h
Reported CC50 is given for each of the following compounds.

[
  {
    "Compound": "O=C(O)CCCCCN1C(=O)/C(=C/C=C/c2ccc([N+](=O)[O-])o2)SC1=S [14b]",
    "CC50": "6.35 µM"
  }
]

Consider the record given below.
Identify CC50 associated with the compound O=C(O)CCCN1C(=O)/C(=C/C=C/c2ccc([N+](=O)[O-])o2)SC1=S [13b]
7.01 µM

---

Attribute: CC50
Tested on: MALME-3M
Test: NCI-60 SRB screen
Conditions: Homo sapiens, Malme-3M, 48 h, read-out: LC50, MALME-3M, 48 h
Entry rule: numbers only, all in µM.

Read off the recorded CC50 for CC(C)C(C(=O)O)N1C(=O)/C(=C/C=C/c2ccc([N+](=O)[O-])o2)SC1=S (stereo not drawn)
5.64

---

Tested on: SK-MEL-28
Conditions: human, 48 h
Reported property: CC50 (µM)
Answer with a number only, understood to be in µM.

Specify measured CC50 for O=C(O)CCCCCN1C(=O)/C(=C/C=C/c2ccc([N+](=O)[O-])o2)SC1=S [14b] .
6.21

---

Consider the following GI50 values measured on SF-539.
The answer is to be given in nM; state only the numeric part.

Example results:
[
  {
    "Compound": "CCCC(C(=O)O)N1C(=O)/C(=C/C=C/c2ccc([N+](=O)[O-])o2)SC1=S (centres unmarked) [4b]",
    "Value measured": 2120
  },
  {
    "Compound": "CC(C)C(C(=O)O)N1C(=O)/C(=C/C=C/c2ccc([N+](=O)[O-])o2)SC1=S (centres unmarked) [5b]",
    "Value measured": 1440
  },
  {
    "Compound": "CCCCC(C(=O)O)N1C(=O)/C(=C/C=C/c2ccc([N+](=O)[O-])o2)SC1=S (centres unmarked) [6b]",
    "Value measured": 1890
  },
  {
    "Compound": "O=C(O)CCN1C(=O)/C(=C/C=C/c2ccc([N+](=O)[O-])o2)SC1=S [12b]",
    "Value measured": 1660
  }
]

Indicate the recorded GI50 value for this compound: O=C(O)C(c1ccccc1)N1C(=O)/C(=C/C=C/c2ccc([N+](=O)[O-])o2)SC1=S (centres unmarked) [9b]
12000

---

Tested on: MDA-MB-435
Test: cells
Conditions: Homo sapiens, MDA-MB-435, 48 h
Consider the cut-off 0.8 µM. If the recorded GI50 is strictly smaller, the label is Criterion met; if not, the label is Criterion not met.

Past entries and their recorded results:
[
  {
    "Compound": "CC(C)C(C(=O)O)N1C(=O)/C(=C/C=C/c2ccc([N+](=O)[O-])o2)SC1=S (stereo not drawn) [5b]",
    "Class name": "Criterion not met"
  },
  {
    "Compound": "CCCC(C(=O)O)N1C(=O)/C(=C/C=C/c2ccc([N+](=O)[O-])o2)SC1=S (stereo not drawn) [4b]",
    "Class name": "Criterion not met"
  },
  {
    "Compound": "CCCCC(C(=O)O)N1C(=O)/C(=C/C=C/c2ccc([N+](=O)[O-])o2)SC1=S (stereo not drawn) [6b]",
    "Class name": "Criterion not met"
  },
  {
    "Compound": "O=C(O)C(c1ccccc1)N1C(=O)/C(=C/C=C/c2ccc([N+](=O)[O-])o2)SC1=S (stereo not drawn) [9b]",
    "Class name": "Criterion not met"
  },
  {
    "Compound": "O=C(O)CCCCCN1C(=O)/C(=C/C=C/c2ccc([N+](=O)[O-])o2)SC1=S [14b]",
    "Class name": "Criterion met"
  }
]

Check if GI50 falls below 0.8 µM for O=C(O)CCN1C(=O)/C(=C/C=C/c2ccc([N+](=O)[O-])o2)SC1=S [12b] .
Criterion not met

---

System: 786-0
Assay: cells
Settings: Homo sapiens, 786-0, 48 h
Listed below: GI50 values for each entry.
Please state the figure in nM; there is no need to write the unit.

Worked cases, GI50 given:
[
  {
    "Compound": "O=C(O)CCCCCN1C(=O)/C(=C/C=C/c2ccc([N+](=O)[O-])o2)SC1=S [14b]",
    "Value measured": 610
  },
  {
    "Compound": "O=C(O)CCCN1C(=O)/C(=C/C=C/c2ccc([N+](=O)[O-])o2)SC1=S [13b]",
    "Value measured": 320
  }
]

Give GI50; test system 786-0; compound O=C(O)C(c1ccccc1)N1C(=O)/C(=C/C=C/c2ccc([N+](=O)[O-])o2)SC1=S (stereo not shown)
3670

# return GI50 for CC(C)C(C(=O)O)N1C(=O)/C(=C/C=C/c2ccc([N+](=O)[O-])o2)SC1=S (stereo not shown) , test system: 786-0
1060

System 786-0. Read-out GI50. Item CCCC(C(=O)O)N1C(=O)/C(=C/C=C/c2ccc([N+](=O)[O-])o2)SC1=S (stereo not shown) . Report value.
3710

Quote 786-0 GI50 for entry O=C(O)CCN1C(=O)/C(=C/C=C/c2ccc([N+](=O)[O-])o2)SC1=S [12b] .
1380

Quote 786-0 GI50 for entry CCCCC(C(=O)O)N1C(=O)/C(=C/C=C/c2ccc([N+](=O)[O-])o2)SC1=S (stereo not shown) .
3110

---

Test system: SK-MEL-5
Experiment: cells
Conditions: Homo sapiens, SK-MEL-5, 48 h
Recorded GI50 values for a group of compounds are listed next.
Write your answer as a measured quantity: the number, then the unit.

Before answering, review these 5 worked examples.
[
  {
    "Compound": "O=C(O)C(c1ccccc1)N1C(=O)/C(=C/C=C/c2ccc([N+](=O)[O-])o2)SC1=S (stereo not drawn) [9b]",
    "Reported property": "GI50",
    "Value measured": "3.38 µM"
  },
  {
    "Compound": "CCCCC(C(=O)O)N1C(=O)/C(=C/C=C/c2ccc([N+](=O)[O-])o2)SC1=S (stereo not drawn) [6b]",
    "Reported property": "GI50",
    "Value measured": "1.45 µM"
  },
  {
    "Compound": "CCCC(C(=O)O)N1C(=O)/C(=C/C=C/c2ccc([N+](=O)[O-])o2)SC1=S (stereo not drawn) [4b]",
    "Reported property": "GI50",
    "Value measured": "1.47 µM"
  },
  {
    "Compound": "O=C(O)CCN1C(=O)/C(=C/C=C/c2ccc([N+](=O)[O-])o2)SC1=S [12b]",
    "Reported property": "GI50",
    "Value measured": "1.03 µM"
  },
  {
    "Compound": "CC(C)C(C(=O)O)N1C(=O)/C(=C/C=C/c2ccc([N+](=O)[O-])o2)SC1=S (stereo not drawn) [5b]",
    "Reported property": "GI50",
    "Value measured": "1.03 µM"
  }
]

Answer with the recorded GI50 for the compound listed here: O=C(O)CCCN1C(=O)/C(=C/C=C/c2ccc([N+](=O)[O-])o2)SC1=S [13b]
0.61 µM
